total protein half-life in vivo listing for selected sequences.
procedure.summary: total protein half-life in vivo (active degradation + dilution); higher = more stable protein
measurement.conditions: E. coli NCM3722 delta-smpB; growth: N-lim chemostat; doubling time 6 h

{"sequence.chain": "MTMYATLEEAIDAAREEFLADNPGIDAEDANVQQFNAQKYVLQDGDIMWQVEFFADEGEEGECLPMLSGEAAQSVFDGDYDEIEIRQEWQEENTLHEWDEGEFQLEPPLDTEEGRAAADEWDER", "total protein half-life in vivo, h": 3.22}
{"sequence.chain": "MNKTQLIDVIAEKAELSKTQAKAALESTLAAITESLKEGDAVQLVGFGTFKVNHRAERTGRNPQTGKEIKIAAANVPAFVSGKALKDAVK [P0ACF0]", "total protein half-life in vivo, h": 5.39}
{"sequence.chain": "MNGKLQSSDVKNETPYNIPLLINENVISSGISLISLWHTYADEHYRVIWPRDKKKPLIANSWVAVYTVQGCGKILLKNGEQITLHGNCIIFLKPMDIHSYHCEGLVWEQYWMEFTPTSMMDIPVGQQSVIYNGEIYNQELTEVAELITSPEAIKNNLAVAFLTKIIYQWICLMYADGKKDPQRRQIEKLIATLHASLQQRWSVADMAATIPCSEAWLRRLFLRYTGKTPKEYYLDARLDLALSLLKQQGNSVGEVADTLNFFDSFHFSKAFKHKFGYAPSAVLKNTDQHPTDASPHN", "total protein half-life in vivo, h": 1.33}
{"sequence.chain": "MSNITIYHNPACGTSRNTLEMIRNSGTEPTIIHYLETPPTRDELVKLIADMGISVRALLRKNVEPYEELGLAEDKFTDDRLIDFMLQHPILINRPIVVTPLGTRLCRPSEVVLEILPDAQKGAFSKEDGEKVVDEAGKRLK [P0AB96]", "total protein half-life in vivo, h": 3.72}
{"sequence.chain": "MKKKTTLSEEDQALFRQLMAGTRKIKQDTIVHRPQRKKISEVPVKRLIQEQADASHYFSDEFQPLLNTEGPVKYVRPDVSHFEAKKLRRGDYSPELFLDLHGLTQLQAKQELGALIAACRREHVFCACVMHGHGKHILKQQTPLWLAQHPHVMAFHQAPKEYGGDAALLVLIEVEEWLPPELP [P0A8B2]", "total protein half-life in vivo, h": 3.68}
{"sequence.chain": "MTITDLVLILFIAALLAFAIYDQFIMPRRNGPTLLAIPLLRRGRIDSVIFVGLIVILIYNNVTNHGALITTWLLSALALMGFYIFWIRVPKIIFKQKGFFFANVWIEYSRIKAMNLSEDGVLVMQLEQRRLLIRVRNIDDLEKIYKLLVSTQ", "total protein half-life in vivo, h": 6.13}
{"sequence.chain": "MIKRVLVVSMVGLSLVGCVNNDTLSGDVYTASEAKQVQNVSYGTIVNVRPVQIQGGDDSNVIGAIGGAVLGGFLGNTVGGGTGRSLATAAGAVAGGVAGQGVQSAMNKTQGVELEIRKDDGNTIMVVQKQGNTRFSPGQRVVLASNGSQVTVSPR [P0A905]", "total protein half-life in vivo, h": 6.1}
{"sequence.chain": "MEALGMIETRGLVALIEASDAMVKAARVKLVGVKQIGGGLCTAMVRGDVAACKAATDAGAAAAQRIGELVSVHVIPRPHGDLEEVFPIGLKGDSSNL [P0ABF4]", "total protein half-life in vivo, h": 4.98}
{"sequence.chain": "MSDDVALPLEFTDAAANKVKSLIADEDNPNLKLRVYITGGGCSGFQYGFTFDDQVNEGDMTIEKQGVGLVVDPMSLQYLVGGSVDYTEGLEGSRFIVTNPNAKSTCGCGSSFSI [P0ACC3]", "total protein half-life in vivo, h": 1.74}
{"sequence.chain": "MNAEKSPVNHNVDHEEIAKFEAVASRWWDLEGEFKPLHRINPLRLGYIAERAGGLFGKKVLDVGCGGGILAESMAREGATVTGLDMGFEPLQVAKLHALESGIQVDYVQETVEEHAAKHAGQYDVVTCMEMLEHVPDPQSVVRACAQLVKPGGDVFFSTLNRNGKSWLMAVVGAEYILRMVPKGTHDVKKFIKPAELLGWVDQTSLKERHITGLHYNPITNTFKLGPGVDVNYMLHTQNK", "total protein half-life in vivo, h": 3.46}
{"sequence.chain": "MTTPTFDTIEAQASYGIGLQVGQQLSESGLEGLLPEALVAGIADALEGKHPAVPVDVVHRALREIHERADAVRRQRFQAMAAEGVKYLEENAKKEGVNSTESGLQFRVINQGEGAIPARTDRVRVHYTGKLIDGTVFDSSVARGEPAEFPVNGVIPGWIEALTLMPVGSKWELTIPQELAYGERGAGASIPPFSTLVFEVELLEIL [P0A9L3]", "total protein half-life in vivo, h": 3.45}
{"sequence.chain": "MATDSTQCVKKSRGRPKVFDRDAALDKAMKLFWQHGYEATSLADLVEATGAKAPTLYAEFTNKEGLFRAVLDRYIDRFAAKHEAQLFCEEKSVESALADYFAAIANCFTSKDTPAGCFMINNCTTLSPDSGDIANTLKSRHAMQERTLQQFLCQRQARGEIPPHCDVTHLAEFLNCIIQGMSISAREGASLEKLMQIAGTTLRLWPELVK", "total protein half-life in vivo, h": 1.57}
{"sequence.chain": "MKQTVYIASPESQQIHVWNLNHEGALTLTQVVDVPGQVQPMVVSPDKRYLYVGVRPEFRVLAYRIAPDDGALTFAAESALPGSPTHISTDHQGQFVFVGSYNAGNVSVTRLEDGLPVGVVDVVEGLDGCHSANISPDNRTLWVPALKQDRICLFTVSDDGHLVAQDPAEVTTVEGAGPRHMVFHPNEQYAYCVNELNSSVDVWELKDPHGNIECVQTLDMMPENFSDTRWAADIHITPDGRHLYACDRTASLITVFSVSEDGSVLSKEGFQPTETQPRGFNVDHSGKYLIAAGQKSHHISVYEIVGEQGLLHEKGRYAVGQGPMWVVVNAH", "total protein half-life in vivo, h": 4.87}
{"sequence.chain": "MTPTIELICGHRSIRHFTDEPISEAQREAIINSARATSSSSFLQCSSIIRITDKALREELVTLTGGQKHVAQAAEFWVFCADFNRHLQICPDAQLGLAEQLLLGVVDTAMMAQNALIAAESLGLGGVYIGGLRNNIEAVTKLLKLPQHVLPLFGLCLGWPADNPDLKPRLPASILVHENSYQPLDKGALAQYDEQLAEYYLTRGSNNRRDTWSDHIRRTIIKESRPFILDYLHKQGWATR", "total protein half-life in vivo, h": 3.98}
{"sequence.chain": "MIKKIFALPVIEQISPVLSRRKLDELDLIVVDHPQVKASFALQGAHLLSWKPAGEEEVLWLSNNTPFKNGVAIRGGVPVCWPWFGPAAQQGLPAHGFARNLPWTLKSHHEDADGVALTFELTQSEETKKFWPHDFTLLAHFRVGKTCEIDLESHGEFETTSALHTYFNVGDIAKVSVSGLGDRFIDKVNDAKENVLTDGIQTFPDRTDRVYLNPQDCSVINDEALNRIIAVGHQHHLNVVGWNPGPALSISMGDMPDDGYKTFVCVETAYASETQKVTKEKPAHLAQSIRVAKR", "total protein half-life in vivo, h": 5.67}
